conditions: 293.15 K; 101.33 kPa; Liquid; Vibrating tube method
Numbers after ± are expanded uncertainties.
QUANTITY: mass density
Give the value; after it, write the unit.

// below: answered compounds
COMPOUND: CCO [ethanol]
mass density: 789.6 ± 0.2 kg/m3
//
COMPOUND: CCn1cc[n+](C)c1.O=S(=O)([O-])C(F)(F)F [1-ethyl-3-methylimidazolium trifluoromethanesulfonate]
mass density: 1389.5 ± 0.6 kg/m3

Proceed to the following item.
Using the record for CCOS(=O)(=O)[O-].CCn1cc[n+](C)c1 [1-ethyl-3-methylimidazolium ethyl sulfate] , report its mass density.
1240.6 ± 0.4 kg/m3

---

assay: molar heat capacity at constant pressure; details: 293.15 K; 101.33 kPa; Liquid; Small sample (50 mg) DSC
# label = criterion met if molar heat capacity at constant pressure >= 400 J/K/mol else criterion not met

MOLECULE: CCCCn1cc[n+](C)c1.F[B-](F)(F)F [1-butyl-3-methylimidazolium tetrafluoroborate]
CLASS_NAME: criterion not met

Please check the record CCCCn1cc[n+](C)c1.O=S(=O)([O-])C(F)(F)F [1-butyl-3-methylimidazolium trifluoromethanesulfonate] and state if its molar heat capacity at constant pressure is at or above 400 J/K/mol.
criterion met

One more molecule: CCn1cc[n+](C)c1.O=S(=O)([O-])C(F)(F)F [1-ethyl-3-methylimidazolium trifluoromethanesulfonate]
criterion not met

One more molecule: CCO
criterion not met

One more molecule: CCCCn1cc[n+](C)c1.COS(=O)(=O)[O-] [1-butyl-3-methylimidazolium methyl sulfate]
criterion met

One more molecule: CCCCCCn1cc[n+](C)c1.F[B-](F)(F)F [1-hexyl-3-methylimidazolium tetrafluoroborate]
criterion met

---

test: molar heat capacity at constant pressure; conditions: 318.15 K; 101.33 kPa; Liquid; Small sample (50 mg) DSC
QUANTITY: molar heat capacity at constant pressure (J/K/mol)
Record the value in J/K/mol, omitting the unit from your answer.

// below: answered compounds
COMPOUND: CCOS(=O)(=O)[O-].CCn1cc[n+](C)c1 [1-ethyl-3-methylimidazolium ethyl sulfate]
UOM: J/K/mol
molar heat capacity at constant pressure: 404.9

COMPOUND: CCCCn1cc[n+](C)c1.F[B-](F)(F)F [1-butyl-3-methylimidazolium tetrafluoroborate]
UOM: J/K/mol
molar heat capacity at constant pressure: 372.9

COMPOUND: CCCCCCn1cc[n+](C)c1.F[B-](F)(F)F [1-hexyl-3-methylimidazolium tetrafluoroborate]
UOM: J/K/mol
molar heat capacity at constant pressure: 438.1

COMPOUND: CCCCn1cc[n+](C)c1.O=S(=O)([O-])C(F)(F)F [1-butyl-3-methylimidazolium trifluoromethanesulfonate]
UOM: J/K/mol
molar heat capacity at constant pressure: 435.5

COMPOUND: CCCCn1cc[n+](C)c1.COS(=O)(=O)[O-] [1-butyl-3-methylimidazolium methyl sulfate]
UOM: J/K/mol
molar heat capacity at constant pressure: 425.6

Using the record for CCn1cc[n+](C)c1.O=S(=O)([O-])C(F)(F)F [1-ethyl-3-methylimidazolium trifluoromethanesulfonate] , report its molar heat capacity at constant pressure.
371.8

One more compound: CCO
122.1

---

conditions: 293.15 K; 101.33 kPa; Liquid; Sing-around technique in a fixed-path interferometer
QUANTITY: speed of sound (m/s)
Record the value in m/s, omitting the unit from your answer.

Using the record for CCO [ethanol] , report its speed of sound.
1159.5

One more molecule: CCCC[n+]1cccc(C)c1.F[B-](F)(F)F [1-butyl-3-methylpyridinium tetrafluoroborate]
1599.8

One more molecule: CCCCCCn1cc[n+](C)c1.F[B-](F)(F)F [1-hexyl-3-methylimidazolium tetrafluoroborate]
1532.7

One more molecule: CCCCn1cc[n+](C)c1.O=S(=O)([O-])C(F)(F)F [1-butyl-3-methylimidazolium trifluoromethanesulfonate]
1403.4

---

conditions: 308.15 K; 101.33 kPa; Liquid; Sing-around technique in a fixed-path interferometer
QUANTITY: speed of sound (m/s)
Record the value in m/s, omitting the unit from your answer.

// below: answered compounds
COMPOUND: CCCCCCn1cc[n+](C)c1.F[B-](F)(F)F [1-hexyl-3-methylimidazolium tetrafluoroborate]
QUANTITY: speed of sound
OBSERVED_VALUE: 1494.5
//
COMPOUND: CCCCn1cc[n+](C)c1.O=S(=O)([O-])C(F)(F)F [1-butyl-3-methylimidazolium trifluoromethanesulfonate]
QUANTITY: speed of sound
OBSERVED_VALUE: 1369.8
//
COMPOUND: CCCC[n+]1cccc(C)c1.F[B-](F)(F)F [1-butyl-3-methylpyridinium tetrafluoroborate]
QUANTITY: speed of sound
OBSERVED_VALUE: 1562.6

Using the record for CCO [ethanol] , report its speed of sound.
1108.6

---

assay: molar heat capacity at constant pressure; settings: 298.15 K; 101.33 kPa; Liquid; Small sample (50 mg) DSC
molar heat capacity at constant pressure less than 400 J/K/mol is class 1; molar heat capacity at constant pressure greater than or equal to 400 J/K/mol is class 0.

Bench note: check whether CCCCCCn1cc[n+](C)c1.F[B-](F)(F)F [1-hexyl-3-methylimidazolium tetrafluoroborate] shows molar heat capacity at constant pressure below 400 J/K/mol
class 0

One more compound: CCCCn1cc[n+](C)c1.COS(=O)(=O)[O-] [1-butyl-3-methylimidazolium methyl sulfate]
class 0

One more compound: CCCCn1cc[n+](C)c1.O=S(=O)([O-])C(F)(F)F [1-butyl-3-methylimidazolium trifluoromethanesulfonate]
class 0

One more compound: CCCCn1cc[n+](C)c1.F[B-](F)(F)F [1-butyl-3-methylimidazolium tetrafluoroborate]
class 1

One more compound: CCn1cc[n+](C)c1.O=S(=O)([O-])C(F)(F)F [1-ethyl-3-methylimidazolium trifluoromethanesulfonate]
class 1

One more compound: CCO [ethanol]
class 1

---

Below: a set of entries, each annotated with reported speed of sound.
conditions: 318.15 K; 101.33 kPa; Liquid; Sing-around technique in a fixed-path interferometer
Numbers after ± are expanded uncertainties.
Give the value; after it, write the unit.

// below: answered molecules
MOLECULE: CCO [ethanol]
speed of sound: 1075.1 ± 0.7 m/s

MOLECULE: CCCCn1cc[n+](C)c1.O=S(=O)([O-])C(F)(F)F [1-butyl-3-methylimidazolium trifluoromethanesulfonate]
speed of sound: 1348.1 ± 1.3 m/s

MOLECULE: CCCC[n+]1cccc(C)c1.F[B-](F)(F)F [1-butyl-3-methylpyridinium tetrafluoroborate]
speed of sound: 1538.9 ± 1.4 m/s

Proceed to the following item.
Using the record for CCCCCCn1cc[n+](C)c1.F[B-](F)(F)F [1-hexyl-3-methylimidazolium tetrafluoroborate] , report its speed of sound.
1470.5 ± 1.4 m/s

---

settings: 298.15 K; 101.33 kPa; Liquid; Sing-around technique in a fixed-path interferometer
QUANTITY: speed of sound (m/s)
Record the value in m/s, omitting the unit from your answer.

// below: answered molecules
MOLECULE: CCCCn1cc[n+](C)c1.O=S(=O)([O-])C(F)(F)F [1-butyl-3-methylimidazolium trifluoromethanesulfonate]
QUANTITY: speed of sound
OBSERVED_VALUE: 1392.1
--
MOLECULE: CCCCCCn1cc[n+](C)c1.F[B-](F)(F)F [1-hexyl-3-methylimidazolium tetrafluoroborate]
QUANTITY: speed of sound
OBSERVED_VALUE: 1519.5
--
MOLECULE: CCCC[n+]1cccc(C)c1.F[B-](F)(F)F [1-butyl-3-methylpyridinium tetrafluoroborate]
QUANTITY: speed of sound
OBSERVED_VALUE: 1587

Proceed to the following item.
Using the record for CCO , report its speed of sound.
1142.5

---

Below: a set of entries, each annotated with reported mass density.
conditions: 318.15 K; 101.33 kPa; Liquid; Vibrating tube method
Record the value in kg/m3, omitting the unit from your answer.

// below: answered molecules
MOLECULE: CCn1cc[n+](C)c1.O=S(=O)([O-])C(F)(F)F [1-ethyl-3-methylimidazolium trifluoromethanesulfonate]
QUANTITY: mass density
UOM: kg/m3
OBSERVED_VALUE: 1368.6
--
MOLECULE: CCCCn1cc[n+](C)c1.F[B-](F)(F)F [1-butyl-3-methylimidazolium tetrafluoroborate]
QUANTITY: mass density
UOM: kg/m3
OBSERVED_VALUE: 1189.9
--
MOLECULE: CCOS(=O)(=O)[O-].CCn1cc[n+](C)c1 [1-ethyl-3-methylimidazolium ethyl sulfate]
QUANTITY: mass density
UOM: kg/m3
OBSERVED_VALUE: 1223.7

Using the record for CCCCCCn1cc[n+](C)c1.F[B-](F)(F)F [1-hexyl-3-methylimidazolium tetrafluoroborate] , report its mass density.
1131.6

One more molecule: CCCCn1cc[n+](C)c1.O=S(=O)([O-])C(F)(F)F [1-butyl-3-methylimidazolium trifluoromethanesulfonate]
1281.9

One more molecule: CCO
767.8

One more molecule: CCCCn1cc[n+](C)c1.COS(=O)(=O)[O-] [1-butyl-3-methylimidazolium methyl sulfate]
1194.2

The measurements presented in this section are drawn from the NIST ThermoML archive (doi:10.1016/j.fluid.2008.09.004).
